- Measurement target: Relipidated TF (Tissue Factor) (UniProt P13726 33-295, limits assumed)
- Assay protocol: cell-based or functional assay
Measure name: ttPeak [min], Ab 100 nM (min)
Could you give me the number in min? Just the number is fine.

The reported value for 5G9 (humanized TF8-5G9, CNTO 860) (antibody, V domains shown) VH: QVQLVESGGGVVQPGRSLRLSCKASGFNIKDYYMHWVRQAPGKGLEWIGLIDPENGNTIYDPKFQGRFTISADNSKNTLFLQMDSLRPEDTAVYYCARDNSYYFDYWGQGTPVTVSS VL: DIQMTQSPSSLSASVGDRVTITCKASQDIRKYLNWYQQKPGKAPKLLIYYATSLADGVPSRFSGSGSGTDYTFTISSLQPEDIATYYCLQHGESPYTFGQGTKLEIT in terms of ttPeak [min], Ab 100 nM is 39.6

// data source = patent US20240166765A1
